experiment: soluble fraction after stress (log2 fold change); higher = more stays soluble; pooled small domains, quantitative proteomics; conditions: stress: 75 degC;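 further: 20 min heating vs room temperature control held 20 min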
Outcome: MET for soluble fraction (log2) of at least -0.8; NOT MET for anything lower.

Sequence Code: HMGVYDLIYLGYGINVEKEELVDQNISIIRRYANIFDPNGDIKGSTNPTYASNTAVLFNEAKFIIDGYD
Label Class: NOT MET
//
Sequence Code: HMIDAHTTLLAKRLESKGFLALTDKSSAEEIYEEFGISKKAFKKALGALYKERLVRIGEDGVVWM
Label Class: NOT MET
//
Sequence Code: HMRKVTDTHELSSVVKSVIDQWEEKAAEYRAGKSGLLGFFVGEVMKKTGGAADPEAAKSLLQDRLD
Label Class: MET
//
Sequence Code: HMSIQDLMNSKDLSGFKVEMLSNEDIVKYKSMLQSSGFSESQAEQLALQRGLPTSELIKLRTRISDVAVT
Label Class: MET
//
Sequence Code: HMDPQDGTVKFFNGARGFGFITPDGGGADVFVHVSAVERAGLTQLVEGQRVNFQTLPDTKGKGPKAVNLKV
Label Class: MET
//
Sequence Code: HMLEIDPPVDEISVSRKAFYEAAGYKVNPYTHIPPRYRKEFEEHSFVVMSWPRELPEETYRKFDRYLRDV
Label Class: MET
//
Sequence Code: HMPDVAIMNVSVEPEKKVVRLQVKAISLEALLDFSTRLEAIPARVELQNHTPSKELSQKWAVNATLIVIY
Label Class: MET
//
Sequence Code: HMDSVEMFSPILGMNANMDLDTLTQTRDKLLEKYKDDEQLIGLVNKTYDYFNEILLKQFLIEELEKNE
Label Class: MET
//
Sequence Code: HMINIGANIRAIRKQKNIKQVDLVRLLQLEGVEITRETLVKIESGVQHIKASQLRGIRDALGTTYDELL
Label Class: NOT MET
//
Sequence Code: HMKINVQETEVYRYLLERADRLYSMILGEERENLMERTRFFEKEVAKASLPHLPKLYDEFSIYLDRLERG
Label Class: MET

Q. Check the entry "HMQLKKDTILSYIEEKLIDSYNSNKGFTTQEISVALNMQRTNVSAILNNLVKENKLVKTKGKPVRYFLSG" : does soluble fraction (log2) equal or exceed -0.8?
A. MET

Q. Check the entry "HMDVPNLVGKTLEEAENELKKLNIRYNVTERADEAPKDTVIEQSPKPYEAMEPGTVVNLVISSGPA" : does soluble fraction (log2) equal or exceed -0.8?
A. MET

Q. Check the entry "HMEFPLSPHQYSVLRLMAQGLSNKQIAERLFLSENTVKGYVQEVLRRLGARNRLEAVMIANRRGWL" : does soluble fraction (log2) equal or exceed -0.8?
A. MET

Q. Check the entry "HMLTSAQLAEIRQAVRAGQASVVEDLLKNGASPNFRMENGDTGFTYAVRADTPQVAEALLKSGKL" : does soluble fraction (log2) equal or exceed -0.8?
A. MET

Q. Check the entry "HMSKHATLLEALAELTVKLKPHTQLPSERQLSEDFGVSRMTLRRAIDVMQSRGYIYTVPSKGLYVSEP" : does soluble fraction (log2) equal or exceed -0.8?
A. NOT MET

Q. Check the entry "HMLDTPLTARELDVLYLMRQRMSAKEIAKQLGIATMTVNRHAANLYRKLGVNTRWDAVYRAEEVGILPP" : does soluble fraction (log2) equal or exceed -0.8?
A. NOT MET

Q. Check the entry "HMDRPARDEAQSWLADVLADGPVPTAEIREEAEAAGLAWRTIQRARIALSVEPIRGDGRNAWLWQLPG" : does soluble fraction (log2) equal or exceed -0.8?
A. NOT MET

* * *

assay: soluble fraction after stress (log2 fold change); higher = more stays soluble; pooled small domains, quantitative proteomics; conditions: stress: 75 degC
Outcome: true for soluble fraction (log2) of at least -0.4; false for anything lower.

Here are 7 sequences together with their reported answers.
Sequence Code: HMTNTWNNIVERNDLFFKKFTNTPFNGKIETYWPNGNLKETGIITDGKKDNLWEYYYENGNPKEVEF
Label Class: false

Sequence Code: HMSKKIVLPAAITVKKFSETLDMPLGTVISELMKNGILATINERIDFETASIIAQDLGYEVSEEV
Label Class: true

Sequence Code: HMSDGDFLQKIAEEILAQFPDKVKEYQKGKKGLIGFFMGELMKRSKGKADPKVATRILEEILSEKNGSS
Label Class: true

Sequence Code: HMFAADIGVGIVDADSLRVRSEPSTGAPIVTSLLRGTQVTVQEKLDGWYRITYNDVSGFVSAEYLIFTADE
Label Class: true

Sequence Code: HMKSKNRLTKSYLDSIPGVGRKRKSILLRYFGSIDQIKRASSEDIANVPGIGKITSDLVYNYFNQ
Label Class: false

Sequence Code: HMFVGVDMAVKEEIGKEGVAFTDLRPAGKVSIGDDVYDAVSETGAFITRGTSVRVLKYQAGQVYVVK
Label Class: false

Sequence Code: HMLVVEPSAELKTIIDKTASFVARNGPEFEARIKNEQNNAKFSFLQPNDPFNPYYRAKIVELGGTV
Label Class: true

Q. Check the entry "HMNQKVRQLLSQAQAEMERKNYKQAIKLLDQALAIEPHSGELHFMKGYAWMSMGEFEKALESLYEARNYA" : does soluble fraction (log2) equal or exceed -0.4?
A. false

* * *

assay: soluble fraction after stress (log2 fold change); higher = more stays soluble; pooled small domains, quantitative proteomics; conditions: stress: 75 degC
Parameter: soluble fraction (log2)
Please give the numeric answer without any surrounding text.

As a guide, the following entries are already answered.
Sequence Code: HMQDYYTQSDFARYLEDKGIHFPQNKIAVYRKRGKFPKEDLVVAGTPYWSKYTVESFAKHLLEQQN
soluble fraction (log2): 0.254
//
Sequence Code: HMPTLLGYKHILSAWNPDTNTVFRTSYGYDGEYGSREEAMQALIKMIQEGGKATPRGIEESEVPIY
soluble fraction (log2): -0.238
//
Sequence Code: HMSSPRAIYSAIQKAVGEDMILYREDVQIILDKLDADLLVDDILEKMELDGTLVRQRDGTWLLL
soluble fraction (log2): -0.801
//
Sequence Code: HMVKRAYGEYVNVKLTDADLSKLKADFPADWQERIERLSTYMASTGKTYKNHLATIRNWARRDAERVSA
soluble fraction (log2): 0.958
//
Sequence Code: HMPANVELLRTFTNKTGTKIKARIVAVSDNKVKLIRDDSKKFIVPIDSLSEEDQKYLKDWIANEVGEQ
soluble fraction (log2): -0.16

Q. Query: soluble fraction (log2); subject: "HMIMTTKVSGIMFDKFNPSAILNINGMDYLVRSGDIINGYKILSIGQETVTVQYGANVYKASVG"
A. -4.48

Q. Query: soluble fraction (log2); subject: "HMDRENNITAGREILEKELSRLALNMKMVNLQDYAARFNVKHSDDILAGIGAGDIRPAHIVNAIAEKLT"
A. -0.0151

Q. Query: soluble fraction (log2); subject: "HMSMDPYTVLGVNKSSTDSQIKNAYKNLAKQHHPDRGGNEAKFKEISTAYEQIKTAEKRQQYDMSQQF"
A. 0.604

* * *

assay: soluble fraction after stress (log2 fold change); higher = more stays soluble; pooled small domains, quantitative proteomics; conditions: stress: 75 degC
Outcome: label 1 for soluble fraction (log2) of at least -0.6; label 0 for anything lower.

Sequence Code: HMEFVEERRNRMLDYIGENKRADVPELARHFDVTEVTIRRDLLILEQDGKLIRTHGGAMINR
Label Class: label 1
//
Sequence Code: HMKPNEYVSGETFPYLGKNYRLKVLHGSENSVRLKGGYFITTISNRDSQLSTVKSLLEDWYQTHADK
Label Class: label 1
//
Sequence Code: HMLQPQMKKFLNYESARNKMRPFGLSTRKEWRLFVDEGNRPADIPGDPYKKYKNKGWISWPHFLGK
Label Class: label 0
//
Sequence Code: HMRAVPTKLAPFVEVLKAMLEADGHRPKAQRRTAKALHLELISRGYAGGYTRLTDYIRDWRQQQG
Label Class: label 0
//
Sequence Code: HMTEIILTARSGRHAVRHRLEGLGYTLTPEELERVHQRFLAVADAKKEVFDEDLHALMADERGT
Label Class: label 1

Now look at this one.
Q. Check the entry "HMVSFSIDEALVSAVKGPRSANVMSIQRQFLVRLSVERDGRVTITGANSKSVQQAREAVEAAVEEAKLHP" : does soluble fraction (log2) equal or exceed -0.6?
A. label 0

* * *

assay: soluble fraction after stress (log2 fold change); higher = more stays soluble; pooled small domains, quantitative proteomics; conditions: stress: 75 degC
Outcome: fulfilled for soluble fraction (log2) of at least -0.5; not fulfilled for anything lower.

Sequence Code: HMVEFLMESTNGMYGIVKEGSSYYVQKGINESSLDYIGGMFMKDKNRFSSYSTALKRLELISGQET
Label Class: fulfilled

Sequence Code: HMDRSVTAAELRLAAMDLLARREHGSQELEAKLSRRFHKRHYDVELLRSVIEQLTVEGLLSDERFAVS
Label Class: not fulfilled

Q. Check the entry "HMEFNQAVQDVNELSMQYAKSDVLWPEFEPKVLAFAKNELSQMPPNQWKFALQTFYNGLKQAA" : does soluble fraction (log2) equal or exceed -0.5?
A. not fulfilled

Q. Check the entry "HMATPTMEDYIEVIYSLVKTKGYARSADIAEKLEVYPSTVTKMLKKLDAEGYIVYEKYRGIALTDIGKKMG" : does soluble fraction (log2) equal or exceed -0.5?
A. not fulfilled

Q. Check the entry "HMGEQYYVLIDNKQNGPHNINAIQKMIDQNIVNRQTLIWKKGMTDWGNIMDDKDLKEMVNKIP" : does soluble fraction (log2) equal or exceed -0.5?
A. fulfilled

All figures here come from the domain aggregation screens of Martell et al. (2025).
